# protocol-text: cells
# condition-info: Homo sapiens, NCI-H3122, 72 h
# Description: Antiproliferative activity against human NCI-H3122 cells after 72 hrs by SRB/CCK-8 assay
The reader will find reported IC50 values listed item by item below.

Dear colleague, I am looking for the recorded IC50 of the following compound: CC1(C)c2cc(C3CCN(CC4CCOCC4)CC3)ccc2C(=O)c2c1[nH]c1cc(C#N)ccc21
43.3 nM

Dear colleague, I am looking for the recorded IC50 of the following compound: CCc1cc2c(cc1N1CCC(N3CCOCC3)CC1)C(C)(C)c1[nH]c3cc(C#N)ccc3c1C2=O
17.4 nM

---

# assay-system: Receptor tyrosine-protein kinase erbB-2 (Homo sapiens)
# protocol-text: Inhibition of human ErbB2 using poly(Glu,Tyr)4:1 as substrate incubated for 60 mins by ELISA
measured-attribute: IC50

Dear colleague, I am looking for the recorded IC50 of the following compound: CC1(C)c2cc(C3CCN(CC4CCOCC4)CC3)ccc2C(=O)c2c1[nH]c1cc(C#N)ccc21
> 1 µM

---

# assay-system: Macrophage-stimulating protein receptor (Homo sapiens, UniProt Q04912)
# Sequence (Q04912 25-304 limits assumed): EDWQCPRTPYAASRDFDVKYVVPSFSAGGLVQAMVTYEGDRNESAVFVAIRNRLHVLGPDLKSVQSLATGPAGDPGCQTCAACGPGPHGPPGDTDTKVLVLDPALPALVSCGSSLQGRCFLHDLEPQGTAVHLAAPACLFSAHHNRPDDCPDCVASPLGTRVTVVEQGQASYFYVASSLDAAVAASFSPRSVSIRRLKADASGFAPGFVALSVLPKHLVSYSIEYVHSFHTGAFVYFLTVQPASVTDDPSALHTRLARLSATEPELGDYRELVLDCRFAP
# Sequence (Q04912 310-1400 limits assumed): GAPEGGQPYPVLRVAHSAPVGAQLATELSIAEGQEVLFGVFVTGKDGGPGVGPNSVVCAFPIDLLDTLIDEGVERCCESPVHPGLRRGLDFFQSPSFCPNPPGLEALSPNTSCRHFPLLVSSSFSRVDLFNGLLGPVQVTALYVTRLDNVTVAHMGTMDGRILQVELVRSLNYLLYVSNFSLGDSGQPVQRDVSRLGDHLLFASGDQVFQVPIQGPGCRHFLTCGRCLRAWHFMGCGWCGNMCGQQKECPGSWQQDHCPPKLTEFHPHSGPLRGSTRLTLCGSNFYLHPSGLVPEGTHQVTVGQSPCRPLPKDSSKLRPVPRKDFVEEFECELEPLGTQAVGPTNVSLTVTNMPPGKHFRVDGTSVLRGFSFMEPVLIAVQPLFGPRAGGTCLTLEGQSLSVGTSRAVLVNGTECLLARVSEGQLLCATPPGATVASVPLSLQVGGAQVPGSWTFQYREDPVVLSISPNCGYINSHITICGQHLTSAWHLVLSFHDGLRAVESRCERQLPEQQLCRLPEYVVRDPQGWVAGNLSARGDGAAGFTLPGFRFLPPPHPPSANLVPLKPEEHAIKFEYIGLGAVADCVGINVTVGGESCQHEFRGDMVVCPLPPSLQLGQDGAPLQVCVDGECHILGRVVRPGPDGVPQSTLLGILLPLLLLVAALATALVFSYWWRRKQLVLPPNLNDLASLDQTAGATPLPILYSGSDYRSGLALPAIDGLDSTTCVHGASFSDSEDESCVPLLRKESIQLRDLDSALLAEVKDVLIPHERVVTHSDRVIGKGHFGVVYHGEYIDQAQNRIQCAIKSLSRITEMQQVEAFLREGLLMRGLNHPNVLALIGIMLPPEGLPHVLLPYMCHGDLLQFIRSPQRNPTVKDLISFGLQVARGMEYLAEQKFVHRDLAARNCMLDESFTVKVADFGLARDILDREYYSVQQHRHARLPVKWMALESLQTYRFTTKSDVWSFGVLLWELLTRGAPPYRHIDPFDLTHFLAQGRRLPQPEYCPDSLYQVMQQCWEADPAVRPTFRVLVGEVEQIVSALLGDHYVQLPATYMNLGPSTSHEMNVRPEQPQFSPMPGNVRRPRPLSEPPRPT
# protocol-text: Inhibition of N-terminal His6-tagged recombinant human Ron (983 residues) expressed in insect Sf21 cells using poly(Glu,Tyr)4:1 as substrate incubated for 60 mins by ELISA
measured-attribute: IC50 (nM)
Write the answer as a number in nM, unit excluded.

Dear colleague, I am looking for the recorded IC50 of the following compound: CC1(C)c2cc(C3CCN(CC4CCOCC4)CC3)ccc2C(=O)c2c1[nH]c1cc(C#N)ccc21
93.4

---

# assay-system: Leukocyte tyrosine kinase receptor (Homo sapiens, UniProt P29376)
# Sequence (P29376 whole entry): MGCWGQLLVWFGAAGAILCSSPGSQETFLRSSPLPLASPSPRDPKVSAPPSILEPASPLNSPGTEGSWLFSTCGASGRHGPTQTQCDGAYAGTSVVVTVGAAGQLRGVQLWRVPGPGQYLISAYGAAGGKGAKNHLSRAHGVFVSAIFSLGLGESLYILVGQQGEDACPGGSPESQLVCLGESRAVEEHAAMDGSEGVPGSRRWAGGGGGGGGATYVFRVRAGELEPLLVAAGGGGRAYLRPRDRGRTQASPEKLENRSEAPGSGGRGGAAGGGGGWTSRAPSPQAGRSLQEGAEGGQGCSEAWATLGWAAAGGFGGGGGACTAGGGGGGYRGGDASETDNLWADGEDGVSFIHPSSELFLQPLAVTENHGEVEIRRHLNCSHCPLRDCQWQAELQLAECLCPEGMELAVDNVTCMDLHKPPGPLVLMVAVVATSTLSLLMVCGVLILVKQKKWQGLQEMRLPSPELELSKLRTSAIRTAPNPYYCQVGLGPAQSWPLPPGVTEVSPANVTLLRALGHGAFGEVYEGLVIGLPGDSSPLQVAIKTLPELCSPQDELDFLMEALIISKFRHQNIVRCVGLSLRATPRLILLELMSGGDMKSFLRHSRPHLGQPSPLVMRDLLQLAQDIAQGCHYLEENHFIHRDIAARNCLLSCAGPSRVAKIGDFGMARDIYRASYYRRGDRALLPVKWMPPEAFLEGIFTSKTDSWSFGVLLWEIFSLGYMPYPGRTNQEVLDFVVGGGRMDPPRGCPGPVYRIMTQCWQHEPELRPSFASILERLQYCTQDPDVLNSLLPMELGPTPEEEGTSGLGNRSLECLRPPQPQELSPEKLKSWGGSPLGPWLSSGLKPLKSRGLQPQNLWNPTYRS
# protocol-text: Inhibition of recombinant LTK (unknown origin) using poly(Glu,Tyr)4:1 as substrate incubated for 60 mins by ELISA
measured-attribute: pIC50
The read-out pIC50 is expressed as -log10 of concentration in moles per litre.

Provide value of pIC50 for this record tested with Leukocyte tyrosine kinase receptor (Homo sapiens, UniProt P29376): CC1(C)c2cc(C3CCN(CC4CCOCC4)CC3)ccc2C(=O)c2c1[nH]c1cc(C#N)ccc21
7.37

---

# assay-system: Vascular endothelial growth factor receptor 1 (Homo sapiens, UniProt P17948)
# Sequence (P17948 whole entry): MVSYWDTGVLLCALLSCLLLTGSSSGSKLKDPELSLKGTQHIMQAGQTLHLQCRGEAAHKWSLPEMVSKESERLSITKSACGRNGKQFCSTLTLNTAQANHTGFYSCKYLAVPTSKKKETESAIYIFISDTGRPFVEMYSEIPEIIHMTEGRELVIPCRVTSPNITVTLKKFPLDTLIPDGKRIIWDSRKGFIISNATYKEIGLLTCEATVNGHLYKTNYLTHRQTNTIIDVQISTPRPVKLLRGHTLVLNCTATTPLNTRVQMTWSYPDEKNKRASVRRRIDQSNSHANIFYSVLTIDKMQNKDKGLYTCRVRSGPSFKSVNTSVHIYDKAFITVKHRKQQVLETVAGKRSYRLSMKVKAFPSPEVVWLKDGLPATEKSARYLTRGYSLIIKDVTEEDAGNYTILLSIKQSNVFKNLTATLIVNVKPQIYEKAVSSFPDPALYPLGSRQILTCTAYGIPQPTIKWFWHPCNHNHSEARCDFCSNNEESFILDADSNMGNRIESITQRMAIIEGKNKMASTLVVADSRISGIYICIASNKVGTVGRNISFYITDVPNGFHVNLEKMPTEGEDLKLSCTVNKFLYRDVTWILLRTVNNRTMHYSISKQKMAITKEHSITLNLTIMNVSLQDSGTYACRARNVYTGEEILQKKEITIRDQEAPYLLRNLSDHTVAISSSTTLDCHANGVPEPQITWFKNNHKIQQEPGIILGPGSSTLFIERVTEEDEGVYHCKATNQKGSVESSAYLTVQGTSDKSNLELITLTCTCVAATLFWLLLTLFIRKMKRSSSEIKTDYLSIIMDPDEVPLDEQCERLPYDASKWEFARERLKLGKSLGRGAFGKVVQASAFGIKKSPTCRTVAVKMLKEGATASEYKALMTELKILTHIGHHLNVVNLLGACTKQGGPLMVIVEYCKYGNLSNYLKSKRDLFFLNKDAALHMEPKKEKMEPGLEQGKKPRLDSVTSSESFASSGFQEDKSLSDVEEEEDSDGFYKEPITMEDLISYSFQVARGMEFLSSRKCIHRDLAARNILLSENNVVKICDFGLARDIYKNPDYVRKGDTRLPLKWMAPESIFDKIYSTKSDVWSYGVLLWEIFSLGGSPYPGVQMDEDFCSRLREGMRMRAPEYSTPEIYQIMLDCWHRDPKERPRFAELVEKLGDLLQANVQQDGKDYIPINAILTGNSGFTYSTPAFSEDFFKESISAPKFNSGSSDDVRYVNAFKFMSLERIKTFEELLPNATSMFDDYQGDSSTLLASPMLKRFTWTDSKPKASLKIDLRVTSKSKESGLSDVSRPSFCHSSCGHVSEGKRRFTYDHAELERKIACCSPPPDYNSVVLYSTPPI
# protocol-text: Inhibition of N-terminal GST-tagged recombinant human FLT1 (783 residues) expressed in insect Sf21 cells using poly(Glu,Tyr)4:1 as substrate incubated for 60 mins by ELISA
measured-attribute: IC50 (nM)
Write the answer as a number in nM, unit excluded.

Dear colleague, I am looking for the recorded IC50 of the following compound: CC1(C)c2cc(C3CCN(CC4CCOCC4)CC3)ccc2C(=O)c2c1[nH]c1cc(C#N)ccc21
159

---

# assay-system: Tyrosine-protein kinase receptor UFO (Homo sapiens, UniProt P30530)
# protocol-text: Inhibition of recombinant human AXL using poly(Glu,Tyr)4:1 as substrate incubated for 60 mins by ELISA
measured-attribute: pIC50
The read-out pIC50 is expressed as -log10 of concentration in moles per litre.

Dear colleague, I am looking for the recorded pIC50 of the following compound: CC1(C)c2cc(C3CCN(CC4CCOCC4)CC3)ccc2C(=O)c2c1[nH]c1cc(C#N)ccc21
6.77

---

# assay-system: Tyrosine-protein kinase ABL1 (Mus musculus, UniProt P00520)
# Sequence (P00520 whole entry, the tested form may be a part): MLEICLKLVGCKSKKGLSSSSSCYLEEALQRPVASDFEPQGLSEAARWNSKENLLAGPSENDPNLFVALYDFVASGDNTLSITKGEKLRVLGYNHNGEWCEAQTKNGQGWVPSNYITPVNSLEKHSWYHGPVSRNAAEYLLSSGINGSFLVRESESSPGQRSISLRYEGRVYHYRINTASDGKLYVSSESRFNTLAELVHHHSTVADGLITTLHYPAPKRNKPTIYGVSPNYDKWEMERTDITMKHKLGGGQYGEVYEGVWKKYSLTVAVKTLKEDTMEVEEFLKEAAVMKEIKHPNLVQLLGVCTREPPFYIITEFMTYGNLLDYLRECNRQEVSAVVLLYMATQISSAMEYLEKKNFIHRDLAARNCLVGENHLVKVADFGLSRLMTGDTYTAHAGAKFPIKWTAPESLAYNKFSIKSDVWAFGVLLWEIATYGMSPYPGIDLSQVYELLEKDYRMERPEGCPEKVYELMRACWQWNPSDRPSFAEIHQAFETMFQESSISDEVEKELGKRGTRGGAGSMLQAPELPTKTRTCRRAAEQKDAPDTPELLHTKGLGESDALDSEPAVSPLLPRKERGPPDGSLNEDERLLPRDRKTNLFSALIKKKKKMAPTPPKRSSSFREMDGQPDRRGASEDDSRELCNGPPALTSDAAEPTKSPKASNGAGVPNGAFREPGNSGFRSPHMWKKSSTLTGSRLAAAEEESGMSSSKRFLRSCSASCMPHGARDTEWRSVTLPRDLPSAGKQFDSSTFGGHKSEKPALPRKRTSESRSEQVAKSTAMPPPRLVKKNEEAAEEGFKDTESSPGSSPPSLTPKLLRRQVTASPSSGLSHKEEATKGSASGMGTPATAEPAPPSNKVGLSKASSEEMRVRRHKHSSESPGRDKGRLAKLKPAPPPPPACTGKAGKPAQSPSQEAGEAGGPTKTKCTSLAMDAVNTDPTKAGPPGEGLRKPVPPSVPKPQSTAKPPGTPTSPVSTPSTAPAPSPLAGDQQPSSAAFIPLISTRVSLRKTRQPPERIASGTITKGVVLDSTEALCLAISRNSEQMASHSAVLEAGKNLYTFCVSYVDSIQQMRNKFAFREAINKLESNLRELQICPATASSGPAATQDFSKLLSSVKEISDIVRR
# protocol-text: Inhibition of N-terminal His6-tagged recombinant mouse ABL (27 to 1123 residues) expressed in insect Sf21 cells using poly(Glu,Tyr)4:1 as substrate incubated for 60 mins by ELISA
measured-attribute: IC50

Dear colleague, I am looking for the recorded IC50 of the following compound: CC1(C)c2cc(C3CCN(CC4CCOCC4)CC3)ccc2C(=O)c2c1[nH]c1cc(C#N)ccc21
> 1000 nM
